Target: SARS-CoV-2 RBD extracellular domain expressed with a C-terminal mouse IgG2a (SARS-COV-2 RBD-mFc) (SARS-CoV-2)

binder	t1/2
mAb10921 (antibody, V domains shown) VH: EVQLVESGGGLVQPGGSLRLSCAASGITVSSNYMSWVRQAPGKGLEWVSVIYSGGSTFYADSVKGRFTISRHNSKNTLYLQMNSLRAEDTAVYYCARERNFDAFDIWGQGTMVTVSS VL: DIQMTQSPSSVSASVGDRVTITCRASQGISSWLAWYQQKPGKAPKLLIYAASSLQSGVPSRFSGSGSGTDFTLTISSLQPEDFATYYCQQANSFPLFTFGPGTKVDIKR	≥ 19.2 h
mAb10954 (antibody, V domains shown) VH: EVQLVESGGGLVQPGGSLRLSCAASGITVSSNYMSWVRQAPGKGLEWVSLIYSGGSTYYADSVKGRFTISRDNSKNTLYLQMNSLRVEDTAVYYCARDHGMAAAGYNYWGQGTLVTVSS VL: DIQMTQSPSSLSASVGDRVTITCQASQDINKYLNWYQQKPGKAPKLLIYDASNLETGVPSRFSGSGSGTDFTFTINSLQPEDFATYFCQQYDNLPPAFGQGTKVEIKR	≥ 19.2 h
mAb10985 (antibody, V domains shown) VH: EVQLVESGGGLVQPGRSLRLSCAASGFTFDDYAMHWVRQAPGKGLEWVSGISWNRGSIGYADSVKGRFTISRDNAKNSLYLQMSSLRAEDTALYYCAKDGERWDSVVVPSARNGMDVWGQGTTVTVSS VL: QSVLTQPPSVSGAPGQRVTISCTGSSSNIGAGYDVHWYQQLPGTAPKLLIYGNSNRPSGVPDRFSGSKSGTSASLAITGLQAEDEADYYCQSYDSSLSGSYVFGTGTKVTVLG	15.2 h
